Target: T1, human GFRα3 expressed with a C-terminal myc-myc-hexahistidine tag (human, UniProt O60609 32-374, biotinylated (sites not given) in ELISA format 2 and in the Octet cross-competition; not in SPR)
T1 construct: also called hGFRα3-mmh; hGFRα3-mmH
T1 sequence (O60609 other isoform, or with tags, fused parts or gaps limits assumed): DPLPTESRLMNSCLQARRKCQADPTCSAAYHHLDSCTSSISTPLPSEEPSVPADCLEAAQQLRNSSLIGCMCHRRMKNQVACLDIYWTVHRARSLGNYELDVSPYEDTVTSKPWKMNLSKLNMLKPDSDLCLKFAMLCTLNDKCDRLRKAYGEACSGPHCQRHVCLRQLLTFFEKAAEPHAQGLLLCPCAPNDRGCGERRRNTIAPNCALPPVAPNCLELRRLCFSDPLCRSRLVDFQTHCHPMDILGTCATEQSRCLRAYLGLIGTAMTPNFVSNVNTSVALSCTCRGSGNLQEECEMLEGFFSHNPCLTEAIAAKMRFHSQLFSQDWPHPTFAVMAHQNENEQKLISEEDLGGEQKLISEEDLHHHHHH
Experiment: Octet cross-competition; biotin-hGFRα3-mmH pre-saturated with first antibody H4H2342P
propertyName: binding response of second antibody (nm)
Numeric answer only, unit nm assumed.

1. H4H2342P (antibody, human IgG4, V domains shown, human IgG4 Fc (H4H)) VH: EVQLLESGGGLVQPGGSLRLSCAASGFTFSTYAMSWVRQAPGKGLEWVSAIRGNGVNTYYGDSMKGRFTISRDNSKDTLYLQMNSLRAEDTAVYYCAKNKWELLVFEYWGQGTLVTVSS VL: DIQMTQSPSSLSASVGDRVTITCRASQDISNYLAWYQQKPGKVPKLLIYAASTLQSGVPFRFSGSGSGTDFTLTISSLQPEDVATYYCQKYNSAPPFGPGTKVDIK    0.06
2. H4H2236N3 (antibody, human IgG4, V domains shown, human IgG4 Fc (H4H)) VH: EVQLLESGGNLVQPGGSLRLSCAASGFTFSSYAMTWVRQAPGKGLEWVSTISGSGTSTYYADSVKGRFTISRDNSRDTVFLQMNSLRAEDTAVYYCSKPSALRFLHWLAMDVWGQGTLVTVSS VL: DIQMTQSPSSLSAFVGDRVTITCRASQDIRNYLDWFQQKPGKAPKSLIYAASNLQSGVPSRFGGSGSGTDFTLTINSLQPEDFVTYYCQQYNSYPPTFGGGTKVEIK    0.2
3. H4H2352S (antibody, human IgG4, V domains shown, human IgG4 Fc (H4H); also called H4H2352S-1) VH: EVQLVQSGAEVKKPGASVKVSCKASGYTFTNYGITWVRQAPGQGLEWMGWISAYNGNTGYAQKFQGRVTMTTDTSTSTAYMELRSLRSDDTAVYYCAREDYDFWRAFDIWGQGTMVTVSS VL: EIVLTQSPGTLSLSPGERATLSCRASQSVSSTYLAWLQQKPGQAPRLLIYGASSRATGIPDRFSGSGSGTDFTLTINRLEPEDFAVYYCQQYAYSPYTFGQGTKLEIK    1.72
4. H4H2292S (antibody, human IgG4, V domains shown, human IgG4 Fc (H4H)) VH: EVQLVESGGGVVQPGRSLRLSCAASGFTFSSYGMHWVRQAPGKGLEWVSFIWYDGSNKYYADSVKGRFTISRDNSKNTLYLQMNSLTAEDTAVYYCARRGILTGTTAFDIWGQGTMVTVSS VL: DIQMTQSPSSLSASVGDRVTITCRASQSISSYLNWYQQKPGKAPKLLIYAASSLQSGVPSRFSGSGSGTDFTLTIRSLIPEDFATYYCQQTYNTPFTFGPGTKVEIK    1.85

// sample H4H2294S (antibody, human IgG4, V domains shown, human IgG4 Fc (H4H)) VH: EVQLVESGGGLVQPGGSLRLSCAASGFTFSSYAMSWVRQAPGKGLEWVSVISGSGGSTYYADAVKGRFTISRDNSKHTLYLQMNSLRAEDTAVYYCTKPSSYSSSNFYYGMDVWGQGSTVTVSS VL: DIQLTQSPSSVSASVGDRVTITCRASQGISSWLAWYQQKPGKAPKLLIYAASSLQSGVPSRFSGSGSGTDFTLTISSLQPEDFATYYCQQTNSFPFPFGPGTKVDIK , its binding response of second antibody (nm) was 0.23

Values compiled from patent US20140056903A1.
